assay notes: solvent given as SMILES
condition set: in CS(C)=O
observed property: absorption maximum (nm)
Answers are plain numbers, in nm.

# map each molecule to its absorption maximum
1. CCN(CC)c1ccc(-c2cc3c(s2)c(C(=O)OC)cc(=O)n3C)cc1
2. Cc1c2oc3c(C)c(N)cc(C(=O)NC4OC(=O)C(C(C)C)N(C)C(=O)CN(C)C(=O)C5CCCN5C(=O)C(C(C)C)NC4=O)c3nc-2c(C(=O)NC2OC(=O)C(C(C)C)N(C)C(=O)CN(C)C(=O)C3CCCN3C(=O)C(C(C)C)NC2=O)c(N)c1=O (stereo not drawn)

446
540.29

---

For each record, write down the corresponding absorption maximum.
assay notes: solvent given as SMILES
condition set: in C1CCCCC1

Known absorption maximum results, listed for orientation:
smiles | absorption maximum
Oc1cccc(/N=C/c2ccccc2Oc2ccccc2)c1 | 322 nm
CC1(C)CC(/N=C/c2ccc3ccc4cccc5ccc2c3c45)CC(C)(C)N1 | 360 nm
CC(C)(C)c1ccc(C2=C(c3ccc(C(C)(C)C)cc3)C(c3ccc(C(C)(C)C)cc3)=[N+]3C2=C(c2ccccc2)c2c(-c4ccc(C(C)(C)C)cc4)c(-c4ccc(C(C)(C)C)cc4)c(-c4ccc(C(C)(C)C)cc4)n2[B-]3(F)F)cc1 | 589 nm
CCOC(=O)CCCn1c(C(=O)OC)c(C)c2c(=O)n3c(cc21)C(CC)=C(C)C3=O | 396 nm
C(C#Cc1ccc2ccc3cccc4ccc1c2c34)#Cc1cccc2ccccc12 | 409 nm

Answer for every listed entry: what is its absorption maximum? The entries follow.
1. Cc1ccc(Nc2ccc(Nc3ccc(C)cc3)c3c2C(=O)c2ccccc2C3=O)cc1
2. c1ccc(-c2ccc(-c3ccc4c(c3)CCO4)cc2)cc1
3. COC(=O)c1c(C(=O)OC)c2ccc(C)nn2c1C

1. 639 nm
2. 289 nm
3. 380.4 nm

Suppose we examine the molecule CC(C)[Si]1(C(C)C)c2ccccc2-c2ccc(N(C)C)cc21 ; what absorption maximum value has been reported? 323 nm
